Listed next: entries and their corresponding IC50.
Biological target: mouse TRPM3a2 (mTRPM3) ion channel (Mus musculus, UniProt J9SQF3)
Construct: expressed in transfected cells; host or cells: flip-in HEK293
Sequence (J9SQF3 1-1709 isoform J9SQF3-12): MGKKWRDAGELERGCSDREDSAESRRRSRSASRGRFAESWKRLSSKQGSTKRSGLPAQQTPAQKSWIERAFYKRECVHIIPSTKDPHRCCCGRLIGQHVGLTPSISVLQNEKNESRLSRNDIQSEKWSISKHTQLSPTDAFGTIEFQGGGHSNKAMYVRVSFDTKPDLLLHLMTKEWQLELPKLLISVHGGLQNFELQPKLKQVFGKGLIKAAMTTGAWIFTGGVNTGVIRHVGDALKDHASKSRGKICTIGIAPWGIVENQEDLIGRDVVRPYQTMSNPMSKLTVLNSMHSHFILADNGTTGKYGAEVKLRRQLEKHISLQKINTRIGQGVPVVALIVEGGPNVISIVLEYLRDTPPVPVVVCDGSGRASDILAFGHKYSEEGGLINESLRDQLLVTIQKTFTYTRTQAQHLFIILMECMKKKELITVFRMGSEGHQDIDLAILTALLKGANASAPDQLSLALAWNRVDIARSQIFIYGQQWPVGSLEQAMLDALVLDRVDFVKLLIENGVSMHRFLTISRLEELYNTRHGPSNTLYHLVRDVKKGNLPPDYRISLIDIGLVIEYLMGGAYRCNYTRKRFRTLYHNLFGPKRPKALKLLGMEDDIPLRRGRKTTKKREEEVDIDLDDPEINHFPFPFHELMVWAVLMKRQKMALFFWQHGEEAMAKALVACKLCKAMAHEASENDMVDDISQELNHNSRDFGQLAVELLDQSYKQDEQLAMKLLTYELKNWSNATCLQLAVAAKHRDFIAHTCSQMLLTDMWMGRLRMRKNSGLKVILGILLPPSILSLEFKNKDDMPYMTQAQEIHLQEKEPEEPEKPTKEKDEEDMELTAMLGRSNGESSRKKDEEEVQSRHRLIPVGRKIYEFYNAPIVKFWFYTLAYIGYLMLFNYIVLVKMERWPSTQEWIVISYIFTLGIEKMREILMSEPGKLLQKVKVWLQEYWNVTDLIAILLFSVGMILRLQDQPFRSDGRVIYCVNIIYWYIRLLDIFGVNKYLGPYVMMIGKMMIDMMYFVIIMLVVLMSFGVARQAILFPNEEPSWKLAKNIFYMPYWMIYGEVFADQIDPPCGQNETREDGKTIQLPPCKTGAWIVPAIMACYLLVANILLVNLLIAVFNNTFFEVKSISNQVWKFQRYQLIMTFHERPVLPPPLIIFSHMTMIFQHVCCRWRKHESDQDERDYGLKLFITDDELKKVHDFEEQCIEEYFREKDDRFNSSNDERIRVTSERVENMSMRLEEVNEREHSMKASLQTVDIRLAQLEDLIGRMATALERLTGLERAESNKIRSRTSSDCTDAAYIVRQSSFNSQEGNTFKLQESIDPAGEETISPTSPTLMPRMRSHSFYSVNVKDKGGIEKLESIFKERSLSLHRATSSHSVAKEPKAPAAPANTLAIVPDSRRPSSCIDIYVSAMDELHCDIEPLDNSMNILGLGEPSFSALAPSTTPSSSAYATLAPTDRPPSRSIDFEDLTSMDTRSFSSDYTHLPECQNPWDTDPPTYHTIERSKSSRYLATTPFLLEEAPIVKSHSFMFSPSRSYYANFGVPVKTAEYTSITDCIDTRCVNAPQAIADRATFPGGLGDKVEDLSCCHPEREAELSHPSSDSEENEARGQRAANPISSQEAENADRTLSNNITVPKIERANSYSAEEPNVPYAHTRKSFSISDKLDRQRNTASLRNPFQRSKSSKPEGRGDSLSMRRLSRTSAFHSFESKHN
Test: TRPM3 ion channel driven Ca2+ uptake, Fluo-4 AM assay (PS-stimulated, overexpressing flip-in HEK293 cells)
Assay type: cell-based
Settings: PS (50 μM) stimulated, cpds. 667-751

// query Provide value of IC50 for this record tested with mouse TRPM3a2 (mTRPM3) ion channel (Mus musculus, UniProt J9SQF3): Cc1ncsc1COc1ccc2oc(C)c(C(=O)NC3(CO)CCNC3)c2c1 (single isomer, unassigned) [728 - En 1]
// result 1000 to 20000 nM

// query Item Cc1oc2ccc(OCc3cccnn3)cc2c1C(=O)NC1(CO)CCNC1=O (single isomer, unassigned) [734 - En 1] with mouse TRPM3a2 (mTRPM3) ion channel (Mus musculus, UniProt J9SQF3) - IC50?
// result ≤ 1000 nM

// query GET /values?readout=IC50&system=mouse TRPM3a2 (mTRPM3) ion channel (Mus musculus, UniProt J9SQF3)&item= Cc1oc2ccc(OCc3ncccc3C3CC3)cc2c1C(=O)NC1(CO)CCOCC1
// result 1000 to 20000 nM

* * *

Target: mouse TRPM3a2 (mTRPM3) ion channel (Mus musculus, UniProt J9SQF3)
Construct: expressed in transfected cells; host or cells: flip-in HEK293
Experiment: TRPM3 ion channel driven Ca2+ uptake, Fluo-4 AM assay (PS-stimulated, overexpressing flip-in HEK293 cells)
Type: cell-based
Details: PS (50 μM) stimulated, cpds. 500-599
pIC50: −log10 of the molar value.
# pIC50 listing for each entry below

As a guide, the following entries are already answered.
Cc1oc2ccc(OCc3cccnc3C(F)(F)F)cc2c1C(=O)NC1(CO)CCCNC1=O (single isomer, unassigned); ≥ 6.00
Cc1ncsc1COc1ccc2oc(C)c(C(=O)N(C)C3(C(N)=O)COC3)c2c1; ≥ 6.00
Cc1oc2ccc(OCc3nccn3C)cc2c1C(=O)NC1(CO)COC1; 4.70 to 6.00
Cc1oc2ccc(OCc3cccc(O)n3)cc2c1C(=O)NC1CCNCC1(F)F (single isomer, unassigned) [569 - En 2]; ≤ 4.70
Cc1ncsc1COc1ccc2oc(C)c(C(=O)NC3(CN)COC3)c2c1; 4.70 to 6.00
COc1ncccc1COc1ccc2oc(C)c(C(=O)NC3(C(N)=O)CCOC3)c2c1 (single isomer, unassigned); ≥ 6.00

Next item in the queue.
// query Which value of pIC50 has been reported for Cc1oc2ccc(OCc3ccccn3)cc2c1C(=O)NC1(CO)CCNC1=O (single isomer, unassigned) [520 - En 1] in the records?
// result ≥ 6.00

* * *

Target: mouse TRPM3a2 (mTRPM3) ion channel (Mus musculus, UniProt J9SQF3)
Construct: expressed in transfected cells; host or cells: flip-in HEK293
Assay: TRPM3 ion channel driven Ca2+ uptake, Fluo-4 AM assay (PS-stimulated, overexpressing flip-in HEK293 cells)
Assay type: cell-based
Details: PS (50 μM) stimulated, cpd 001-199
Listed here are compounds together with their documented IC50.

Cc1oc2ccc(OCc3ccccn3)cc2c1C(=O)NC1CCN(C)CC1; 1 to 20 µM
Cc1oc2ccc(OCc3cnco3)cc2c1C(=O)O; ≥ 20 µM
COc1ncccc1COc1ccc2oc(C)c(C(=O)O)c2c1; 1 to 20 µM
COCCN1CCC(NC(=O)c2c(C)oc3ccc(OCc4scnc4C)cc23)C1=O (single isomer, unassigned) [169 - En 2]; ≤ 1 µM
Cc1oc2cc(C#N)c(OCc3cccnc3C(F)(F)F)cc2c1C(=O)NC1CCNCC1(F)F (single isomer, unassigned); 1 to 20 µM
COCCN1CCC(NC(=O)c2c(C)oc3ccc(OCc4scnc4C)cc23)C1=O (single isomer, unassigned) [169 - En 1]; ≤ 1 µM

// query Given Cc1oc2ccc(OCc3cccnc3C(F)(F)F)cc2c1C(=O)NCC1(N)COC1 , state its recorded IC50.
// result 1 to 20 µM

// query Quick check: IC50 of Cc1oc2ccc(OCC3CCOCC3)cc2c1C(=O)O ?
// result 1 to 20 µM

* * *

Target: mouse TRPM3a2 (mTRPM3) ion channel (Mus musculus, UniProt J9SQF3)
Construct: expressed in transfected cells; host or cells: flip-in HEK293
Test: TRPM3 ion channel driven Ca2+ uptake, Fluo-4 AM assay (PS-stimulated, overexpressing flip-in HEK293 cells)
Format: cell-based
Details: PS (50 μM) stimulated, cpd 001-199
parameter.measured: IC50

Cc1oc2c(C)cc(OCc3cccnc3C(F)(F)F)cc2c1C(=O)NC1CCNCC1(F)F (single isomer, unassigned) [183 - En 1]; 1 to 20 µM
Cc1oc2ccc(OCc3nccs3)cc2c1C(=O)NC1CCNC1=O (stereo not drawn); ≤ 1 µM
Cc1oc2c(Cl)cc(OCc3cccnc3C(F)(F)F)cc2c1C(=O)NC1CCNCC1(F)F (single isomer, unassigned) [184 - En 2]; ≥ 20 µM
Cc1ncsc1COc1ccc2oc(C)c(C(=O)NC3CN(CC(F)(F)F)CC3(F)F)c2c1 (single isomer, unassigned) [155 - En 1]; ≤ 1 µM

We next turn to a different compound, shown below.
// query Can you share its IC50? I mean this compound: Cc1oc2ccc(OCc3nccs3)cc2c1C(=O)O
// result 1 to 20 µM

* * *

Target: mouse TRPM3a2 (mTRPM3) ion channel (Mus musculus, UniProt J9SQF3)
Construct: expressed in transfected cells; host or cells: flip-in HEK293
Test: TRPM3 ion channel driven Ca2+ uptake, Fluo-4 AM assay (PS-stimulated, overexpressing flip-in HEK293 cells)
Type: cell-based
Conditions: PS (50 μM) stimulated, cpd 001-199
pIC50: −log10 of the molar value.
pIC50 for assorted compounds

The following compounds have reported results that may help.
Cc1oc2ccc(OCc3cccnc3C(F)(F)F)cc2c1C(=O)NC1(CCO)CCOC1 (single isomer, unassigned) [126 - En 1]; ≥ 6.00
Cc1oc2ccc(OCc3ccsc3)cc2c1C(=O)O [cpd 011]; 4.70 to 6.00
Cc1oc2cc(Cl)c(OCc3cccnc3C(F)(F)F)cc2c1C(=O)NC1CCNCC1(F)F (single isomer, unassigned) [165 - En 2]; 4.70 to 6.00
COc1ncccc1COc1ccc2oc(C)c(C(=O)NC3CCNCC3(F)F)c2c1 (centres unmarked) [cpd 062]; ≥ 6.00
Cc1oc2ccc(OCc3ccncc3)cc2c1C(=O)N[C@H]1CCNC1 [cpd 021]; 4.70 to 6.00
Cc1oc2ccc(OCc3cccnc3C(F)(F)F)cc2c1C(=O)NC1CCN(C(=O)OC(C)(C)C)CC1(F)F (centres unmarked) [cpd 098]; 4.70 to 6.00
Cc1oc2c(C)cc(OCc3cccnc3C(F)(F)F)cc2c1C(=O)NC1CCNCC1(F)F (single isomer, unassigned) [183 - En 2]; ≤ 4.70

// query Suppose we examine the compound Cc1ncsc1COc1ccc2oc(C)c(C(=O)NC3CN(C)CC3(F)F)c2c1 (single isomer, unassigned) [123 - En 1] ; what pIC50 value has been reported?
// result ≥ 6.00

* * *

Biological target: mouse TRPM3a2 (mTRPM3) ion channel (Mus musculus)
Construct: expressed in transfected cells; host or cells: flip-in HEK293
Experiment: TRPM3 ion channel driven Ca2+ uptake, Fluo-4 AM assay (PS-stimulated, overexpressing flip-in HEK293 cells)
Format: cell-based
Details: PS (50 μM) stimulated Ca2+ influx, HEK293, cpds 300-399
IC50 overview

Cc1ncc(C(C)Oc2ccc3oc(C)c(C(=O)NC(CO)C(N)=O)c3c2)s1 (single isomer, unassigned) [395 - Dia 1]; ≤ 1000 nM
Cc1ncsc1COc1cc2c(C(=O)NC3CCN(CCO)C3=O)c(C)oc2cc1F (single isomer, unassigned) [360 - En 1]; ≤ 1000 nM
Cc1ncc(COc2ccc3oc(C)c(C(=O)NC4COCC4O)c3c2)s1 (single isomer, unassigned) [386 - En 2]; 1000 to 20000 nM
Cc1oc2ccc(OCc3ccnn3CC(F)F)cc2c1C(=O)NC1(CO)CCNC1=O (single isomer, unassigned) [333 - En 1]; ≤ 1000 nM
Cc1ncsc1COc1ccc2oc(C)c(C(=O)NC3(CO)CC3)c2c1F [cpd 327]; 1000 to 20000 nM

// query Would you mind telling me what IC50 value was observed for Cc1ncc(COc2ccc3oc(C)c(C(=O)NC4COCC4O)c3c2)s1 (single isomer, unassigned) [386 - En 1] ?
// result ≤ 1000 nM

// query Which value of IC50 has been reported for Cc1ncc(COc2ccc3oc(C)c(C(=O)NC4COCC4O)c3c2)s1 (single isomer, unassigned) [388 - En 2] in the records?
// result 1000 to 20000 nM

* * *

Biological target: mouse TRPM3a2 (mTRPM3) ion channel (Mus musculus)
Construct: expressed in transfected cells; host or cells: flip-in HEK293
Assay: TRPM3 ion channel driven Ca2+ uptake, Fluo-4 AM assay (PS-stimulated, overexpressing flip-in HEK293 cells)
Format: cell-based
Conditions: PS (50 μM) stimulated, cpd 001-199
parameter.measured: IC50

Cc1ncsc1COc1ccc2oc(C)c(C(=O)NC3CC4(CNC4)C3)c2c1; 1000 to 20000 nM
Cc1oc2cc(Cl)c(OCc3cccnc3C(F)(F)F)cc2c1C(=O)NC1CCNCC1(F)F (single isomer, unassigned) [165 - En 1]; ≤ 1000 nM

// query Need IC50, item Cc1oc2ccc(OCc3ncccc3C(F)(F)F)cc2c1C(=O)NC1CCN(C(=O)OC(C)(C)C)CC1(F)F (centres unmarked)
// result 1000 to 20000 nM

// query Suppose we examine the compound Cc1oc2ccc(OCc3cccc(N(C)C)n3)cc2c1C(=O)NC1CCN(C(=O)OC(C)(C)C)CC1(F)F (centres unmarked) ; what IC50 value has been reported?
// result 1000 to 20000 nM

// query Recorded IC50 of Cc1oc2ccc(OCc3ccn(C)n3)cc2c1C(=O)N[C@H]1CCNC1 , please.
// result 1000 to 20000 nM

// query Any idea what IC50 was measured for Cc1oc2ccc(OCc3nccs3)cc2c1C(=O)NC1CCNCC1(F)F (centres unmarked) ?
// result ≤ 1000 nM

// query Endpoint output: IC50 of Cc1oc2ccc(OCc3nccc4ccccc34)cc2c1C(=O)NC1CCN(C)CC1 . Value?
// result 1000 to 20000 nM

// query Which IC50 is listed for Cc1oc2ccc(OCc3ccn(C)n3)cc2c1C(=O)O ?
// result 1000 to 20000 nM
